Origin of the recorded values: the RNAGym collection of RNA variant scans (doi:10.7554/elife.80360)

B1: HDV Ribozyme (parent)
chain: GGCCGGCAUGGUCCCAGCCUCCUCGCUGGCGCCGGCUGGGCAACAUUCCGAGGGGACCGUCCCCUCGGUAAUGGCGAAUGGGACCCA

- Variants of: B1
- method.summary: self-cleavage, relative activity (ratio to wild type); higher = more cleavage; co-transcriptional
Record form. Attribute: self-cleavage. Fill in for each entry.
// no unit string in output, number only

For the variant shown here, G50C A71G , give the reported self-cleavage.
1.01

Report self-cleavage for C14U C84U please.
0.845

Item G53A U65A has what recorded self-cleavage?
0.884

Entry G25A C62G has what self-cleavage?
0.151

Which self-cleavage value is on record for C49G C61G ?
0.618

For U46A C48A , what is its reported self-cleavage?
0.665

Please give the measured self-cleavage for this variant: C58A C62A
1.26

Look at this variant and give its reported self-cleavage. G34C A71U
0.095

For the variant shown here, C22U C84A , give the reported self-cleavage.
0.408
